Values from ChEMBL document CHEMBL3813649

Would you kindly list MBC for each of these compounds?
# System: Staphylococcus aureus
# experiment.summary: Bactericidal activity against Staphylococcus aureus ATCC 25923 after 18 hrs by microbroth dilution assay
# Format: functional
# measurement.parameters: ATCC 25923, 18 h
I only need the number, in mg/L, no unit after it.

Give the reported MBC for this compound. CCN(CC)[c+]1sc2c(s1)C(c1ccc(Cl)cc1)Oc1ccccc1-2.F[B-](F)(F)F (stereo unspecified) 7.81

Name the recorded MBC of the item NC[C@H]1O[C@H](O[C@H]2[C@H](O)[C@@H](O[C@H]3O[C@H](CO)[C@@H](O)[C@H](N)[C@H]3O)[C@H](N)C[C@@H]2N)[C@H](O)[C@@H](O)[C@@H]1O [KANAMYCIN] in your answer. 1.95

Consider the compound CCN(CC)[c+]1sc2c(s1)C(c1ccc(F)cc1)Oc1ccc(F)cc1-2.F[B-](F)(F)F (stereo unspecified) and give its recorded MBC. 3.9

Please give the documented MBC of CCN(CC)[c+]1sc2c(s1)C(c1ccc(I)cc1)Oc1ccc(Cl)cc1-2.F[B-](F)(F)F (stereo unspecified) 0.48

Provide MBC value for the following compound: CCN(CC)[c+]1sc2c(s1)C(c1ccc(Br)cc1)Oc1ccc(F)cc1-2.F[B-](F)(F)F (stereo unspecified) 7.81

Given the compound CCN(CC)[c+]1sc2c(s1)C(c1ccccc1)Oc1ccccc1-2.F[B-](F)(F)F (stereo unspecified) , write its reported MBC. 250

Retrieve MBC measured for CCN(CC)[c+]1sc2c(s1)C(c1ccc(Cl)cc1)Oc1ccc(F)cc1-2.F[B-](F)(F)F (stereo unspecified) and print it. 7.81

Supply reported MBC belonging to this compound: CCN(CC)[c+]1sc2c(s1)C(c1ccc(Br)cc1)Oc1ccc(Cl)cc1-2.F[B-](F)(F)F (stereo unspecified) 3.9

Annotate the compound CCN(CC)[c+]1sc2c(s1)C(c1ccccc1)Oc1ccc(F)cc1-2.F[B-](F)(F)F (stereo unspecified) with its measured MBC. 15.6

Assign MBC to the following record: CCN(CC)[c+]1sc2c(s1)C(c1ccc(F)cc1)Oc1ccc(Cl)cc1-2.F[B-](F)(F)F (stereo unspecified) 3.9

Identify measured MBC associated with CCN(CC)[c+]1sc2c(s1)C(c1ccc(I)cc1)Oc1ccccc1-2.F[B-](F)(F)F (stereo unspecified) 1.95

Please indicate MBC recorded for CCN(CC)[c+]1sc2c(s1)C(c1ccc(Cl)cc1)Oc1ccc(Cl)cc1-2.F[B-](F)(F)F (stereo unspecified) 0.48

Answer with reported MBC of CCN(CC)[c+]1sc2c(s1)C(c1ccc(F)cc1)Oc1ccccc1-2.F[B-](F)(F)F (stereo unspecified) 7.81

Note down MBC recorded for CCN(CC)[c+]1sc2c(s1)C(c1ccc(Br)cc1)Oc1ccccc1-2.F[B-](F)(F)F (stereo unspecified) 1.95

Supply measured MBC of CCN(CC)[c+]1sc2c(s1)C(c1ccc(I)cc1)Oc1ccc(F)cc1-2.F[B-](F)(F)F (stereo unspecified) in your reply. 0.97

Provide measured MBC value, entry: CCN(CC)[c+]1sc2c(s1)C(c1ccccc1)Oc1ccc(Cl)cc1-2.F[B-](F)(F)F (stereo unspecified) 3.9
